- targetOrTestSystem: NDM-1 (Klebsiella pneumoniae)
- Sequence (C7C422 whole entry, looked up, species assumed): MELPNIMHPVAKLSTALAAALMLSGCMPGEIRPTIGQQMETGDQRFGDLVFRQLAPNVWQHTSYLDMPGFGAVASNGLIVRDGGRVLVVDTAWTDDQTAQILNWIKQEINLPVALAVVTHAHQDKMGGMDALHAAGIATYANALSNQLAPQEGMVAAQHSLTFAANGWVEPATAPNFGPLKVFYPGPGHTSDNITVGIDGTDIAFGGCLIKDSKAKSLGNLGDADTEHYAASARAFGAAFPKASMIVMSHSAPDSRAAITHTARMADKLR
- test: biochemical
- Assay type: biochemical
- particulars: fluorescence assay with CCF2-FA substrate; read-out: NDM-1 IC50
quantityMeasured: pIC50
One number for each entry, as −log10 of the molar value.

Worked set:
# givenSmiles, pIC50
measured = [
    ("NS(=O)(=O)c1c(C(F)(F)F)ccc(-c2ccc(C3CN(CCC4CCNCC4)C3)cc2)c1-c1nnn[nH]1", 8.31),
    ("N#Cc1ccccc1Cc1cccc(S(N)(=O)=O)c1-c1nnn[nH]1", 8.16),
]

Given `NS(=O)(=O)c1nccc(-c2ccc(C3CCOCC3)cc2)c1-c1nnn[nH]1` , respond with its pIC50. 8.55

All figures here come from patent US9708336B2.
